molecular target: RAMP2-CLR ECD (AM1); purified MBP-RAMP2 ECD [L106R]-(GS)5-CLR ECD-H6 fusion protein (Homo sapiens, UniProt O60895+Q16602, L106R); construct: MBP-hRAMP2.55-140 [L106R]-(Gly-Ser-Ala)3-hCLR.29-144-H6; made in house; host or cells: E. coli; experiment: Fluorescence polarization (FP) peptide binding competition assay, AM1 receptor ECD complex; conditions: FP competition, FITC-AM W/W probe 7 nM, fusion protein 110 nM; read-out: RAMP2-CLR ECD (AM1) KI
Where no end group is shown, it is not given here.
observation_type: pKi
Remember the convention: pKi equals -log10 of concentration in molar.

In: Identify the reported pKi for the following entry. FVPTDVGPWSY-NH2 [N31D/S34P/K35W/A36S/F37Y]
Out: 6.49

====

Each item that follows carries a reported Ki.
biological target: RAMP1-CLR ECD (CGRP); purified MBP-RAMP1 ECD-(GS)5-CLR ECD-H6 fusion protein (Homo sapiens, UniProt O60894+Q16602); construct: MBP-hRAMP1.24-111-(Gly-Ser)5-hCLR.29-144-H6; made in house; host or cells: E. coli; experiment: Fluorescence polarization (FP) peptide binding competition assay, CGRP receptor ECD complex; conditions: RAMP1-CLR ECD (CGRP) KI (nM), FP competition, FITC-AM W/W probe 7 nM, fusion protein 15 nM
Where no end group is shown, it is not given here.
Quick note: give the figure in nM, leave out the unit.

FVPTDTGPWGY-NH2 [N31D/V32T/S34P/K35W/A36G/F37Y] : 17.6
FVPTDVGPWAF-NH2 [N31D/S34P/K35W] : 8.13
DKDNVAPRTWISPWGY-NH2 [S45T/K46W/Q50W] : 439

In: Assign Ki to the following record: FVPTDVGPFSF-NH2 [N31D/S34P/K35F/A36S]
Out: 2.95

====

molecular target: RAMP2-CLR ECD (Homo sapiens, UniProt O60895+Q16602, L106R); construct: MBP-hRAMP2.55-140 [L106R]-(Gly-Ser-Ala)3-hCLR.29-144-H6; made in house; host or cells: E. coli; experiment: AlphaLISA/AlphaScreen competition peptide binding assay, AM1 receptor ECD complex; details: read-out: IC50 in AlphaLISA or AlphaScreen competition assays, RAMP2-CLR ECD
Where no end group is shown, it is not given here.
observation_type: IC50

In: # return recorded IC50 for entry DKDNVAPRSKISPQGY-NH2 [WT, reference compound]
Out: 5 to 15 µM

====

Biological target: RAMP1-CLR ECD (CGRP); purified MBP-RAMP1 ECD-(GS)5-CLR ECD-H6 fusion protein (Homo sapiens, UniProt O60894+Q16602)
Construct: MBP-hRAMP1.24-111-(Gly-Ser)5-hCLR.29-144-H6; made in house; host or cells: E. coli
Experiment: Fluorescence polarization (FP) peptide binding competition assay, CGRP receptor ECD complex
Conditions: CGRP (RAMP1-CLR ECD) over AM1 (RAMP2-CLR ECD), FP assay
Procedure: Fluorescence polarization peptide binding assay. […] The reactions (50 μL) were incubated for 2 hours at room temperature to reach equilibrium, and the anisotropy was measured in black half-area 96-well plates using a BMG LABTECH's POLARstar® Omega plate reader (Ortenberg, Germany). The reaction buffer was 50 mM HEPES, pH 7.5, 150 mM NaCl, 0.5 mg/ml fatty acid-free BSA, 0.5 mM EDTA, 0.5 mM maltose. […]
Where no end group is shown, it is not given here.
Receptor Selectivity, fold for CGRP for assorted substances

// worked examples, Receptor Selectivity, fold for CGRP included
DKDNVAPRSLISPWGF-NH2 [K46L/Q50W/Y52F] : 2820-fold for CGRP
FVPTDVGPWSY-NH2 [N31D/S34P/K35W/A36S/F37Y] : 245-fold for CGRP
DKDNVAPRWWISPWGF-NH2 [S45W/K46W/Q50W/Y52F] : 692-fold for CGRP
FVPTDTGPWGY-NH2 [N31D/V32T/S34P/K35W/A36G/F37Y] : 821-fold for CGRP
DKDNVAPRWLISPWGF-NH2 [S45W/K46L/Q50W/Y52F] : 2131-fold for CGRP
DKDNVAPRWMISPWGF-NH2 [S45W/K46M/Q50W/Y52F] : 977-fold for CGRP
DKDNVAPRSLISPWGY-NH2 [K46L/Q50W] : 23-fold for CGRP
DKFNVAPRSLISPWGY-NH2 [D39F/K46L/Q50W] : 22-fold for CGRP

In: Write down Receptor Selectivity, fold for CGRP measured for item DKFNVAPRSLISPWGF-NH2 [D39F/K46L/Q50W/Y52F]
Out: 1213-fold for CGRP

In: Consider the substance FVPTDVGPWSF-NH2 [N31D/S34P/K35W/A36S] and give its recorded Receptor Selectivity, fold for CGRP.
Out: 1856-fold for CGRP

In: Given the substance DKDNVAPRTWISPWGY-NH2 [S45T/K46W/Q50W] , write its reported Receptor Selectivity, fold for CGRP.
Out: 28-fold for CGRP

In: Identify Receptor Selectivity, fold for CGRP associated with the substance DKDNVAPRTLISPWGY-NH2 [S45T/K46L/Q50W]
Out: 24-fold for CGRP

In: Identify measured Receptor Selectivity, fold for CGRP associated with FVPTDTGPWSF-NH2 [N31D/V32T/S34P/K35W/A36S]
Out: ≥2754-fold for CGRP
